Test Target: N-terminal Xaa-Pro-Lys N-methyltransferase 1 (Homo sapiens) (UniProt Q9BV86)
Sequence (Q9BV86 whole entry, looked up): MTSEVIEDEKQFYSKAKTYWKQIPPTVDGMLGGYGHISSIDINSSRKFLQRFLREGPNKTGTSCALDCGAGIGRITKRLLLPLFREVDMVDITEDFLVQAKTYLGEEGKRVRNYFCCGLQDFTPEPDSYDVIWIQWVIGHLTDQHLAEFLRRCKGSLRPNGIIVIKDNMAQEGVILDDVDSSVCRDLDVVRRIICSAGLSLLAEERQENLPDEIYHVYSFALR
Protocol Text: qHTS Assay for Inhibitors of N-terminal methyltransferase 1 (NTMT1): LOPAC validation of the NTMT1 SAHH-coupled ThioGlo3 Assay (AID 1347143);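 also: SAH from peptide methylation measured as thiol fluorescence via SAHH coupling and ThioGlo3; nearly all actives have a fitted effect of over 70% in size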
Setup Conditions: recombinant NTMT1, SAHH-coupled ThioGlo3 fluorescence; series mostly up to 114 µM
Inconclusive results are not listed. Calls of active or inactive are those of the source. Calls follow the shape of the dose curve; as a rule, active = well fitted inhibition curve with a large enough effect; inconclusive = small, poorly fitted or top-dose-only effect; inactive = no such curve, though single readings can be large or run the other way.
Outcomes you can answer with include only these: active, inactive

Hi, sorry to bother you, what did the test record for CCCC(CCC)C(=O)OC1CC2CCC(C1)[N+]2(C)C (centres undefined) ?
inactive

Field: outcome | Entry: Cc1ccc(O)c(N=Nc2ccccc2)n1
active

// return assay outcome for COc1cc(SC)ccc1C(=O)N1CCC(Cc2ccccc2)CC1
inactive

Please indicate how the test categorized CCCN(CC1CC1)c1nc(C)nc(Nc2c(Cl)cc(Cl)cc2Cl)c1Cl .
inactive

Which outcome was entered for the compound O=[N+]([O-])c1ccc(CSc2ncnc3c2ncn3[C@@H]2O[C@H](CO)C(O)[C@H]2O)cc1 (some centres undefined) in this test?
inactive

Each compound tested received a call. Report the one for COc1cc(C(O)CO)ccc1OS(=O)(=O)O (centres undefined) .
inactive

Hi, do you know how O=C1NC(O)=NC1(c1ccccc1)c1ccccc1 came out in this test?
inactive

For NS(=O)(=O)c1ccc(-n2nc(C(F)(F)F)cc2-c2ccc(Cl)cc2)cc1 , which call appears in the assay record?
inactive

What did this assay record as the result for CC(C)(C)NCC(O)COc1nsnc1N1CCOCC1 (centres undefined) ?
inactive

Lab log entry: O=S(=O)(c1cccc2c(I)cccc12)N1CCCNCC1 — outcome as called in the assay?
active

Can you look up the reported call for Cn1ncc(S(=O)(=O)Cc2ccccc2)c(Br)c1=O for me?
active

Test call for this compound, please: CN(C)CCC(c1ccc(Cl)cc1)c1ccccn1 (centres undefined)
inactive

Record lookup: outcome of this test for O=[N+]([O-])c1ccc2c(c1)S(=O)(=O)C=C2 ?
active

Hi, do you know how O=C1NC(=O)c2c1c(-c1ccccc1)cc1[nH]c3ccc(O)cc3c21 came out in this test?
active

Recorded call for CC(=O)SCC[N+](C)(C)C ?
inactive

Could you please tell me the result logged for CC[C@H]1OC(=O)[C@H](C)C(O[C@H]2C[C@@](C)(OC)[C@@H](O)[C@H](C)O2)[C@H](C)[C@@H](OC2O[C@H](C)C[C@H](N(C)C)[C@H]2O)[C@](C)(O)C[C@@H](C)CN(C)[C@H](C)[C@@H](O)[C@]1(C)O (some centres undefined) in this assay?
inactive

Recorded test call requested for S=C(S)OC1CC2CC1C1CCCC21 (centres undefined)
inactive

What call does the record list for C=CC(N)CCC(=O)O (centres undefined) ?
inactive

// return assay outcome for O=C(O)CCCC[C@@H]1CCSS1
inactive

Recorded test outcome, item OC[C@H]1O[C@@H](n2cnc3c(NC4CCCC4)ncnc32)[C@H](O)C1O (some centres undefined)
inactive

In this assay, the call recorded for COCCOc1cc2ncnc(Cl)c2cc1OCCOC was what?
inactive

Please share the test call associated with CC[C@@H](C)[C@H]1O[C@]2(CC[C@@H]1C)C[C@@H]1C[C@@H](C/C=C(\C)[C@@H](O[C@H]3C[C@H](OC)[C@@H](O[C@H]4C[C@H](OC)[C@@H](O)[C@H](C)O4)[C@H](C)O3)[C@@H](C)/C=C/C=C3\CO[C@@H]4[C@H](O)C(C)=C[C@@H](C(=O)O1)[C@]34O)O2 .
inactive

Please indicate how the test categorized NS(=O)(=O)C#Cc1ccccc1 .
inactive

Please state the recorded outcome for this compound: NCCCCCCCCCCN
inactive

Source: PubChem BioAssay (NCATS)
